- Tested on: OVCAR-4 ovarian
- testMethodNotes: NCI tumour cell line growth inhibition, 48 h
Listed molecules paired with reported GI50

Below, 3 molecules whose answers are already recorded.
>>> valueobserved("Cc1ccc([P+](Cc2ccccc2)(c2ccccc2)c2ccccc2)cc1")
"2.62 µM"
>>> valueobserved("O=C(CCCn1c2c(sc3ccccc32)c(=O)n2nnc(-c3ccccc3)c12)NCCc1cnc[nH]1")
"1.84 µM"
>>> valueobserved("Cc1ccccc1C1=C(c2cn(C)c3ccccc23)C(=O)NC1=O")
"> 21.1 µM"

Requested field: GI50. Item: `COc1cc2c3c(n(CCCN(CCCN(CCCn4c5c(c6ccccc6c4=O)C(=O)c4ccccc4-5)C(=O)OC(C)(C)C)C(=O)OC(C)(C)C)c(=O)c2cc1OC)-c1cc2c(cc1C3=O)OCO2`
> 100 µM

Requested field: GI50. Item: `O=C(Cn1c(C(=O)c2ccc(Cl)cc2)nc(-c2ccc(Cl)cc2)c1-c1ccc(Cl)cc1)c1ccccc1`
> 100 µM

Requested field: GI50. Item: `CCn1c(-c2nonc2N)nc2c(C#CC(C)(C)O)ncc(OC3CCNCC3)c21`
14.1 µM
